Every entry's value here was drawn from patent US9815796B2.

targetOrTestSystem: human PDE2A1 (Homo sapiens (Human))
experimentSummary: IMAP FP PDE selectivity panel, human PDE2A1
Assay type: biochemical
particulars: Human PDE2, Lab B; read-out: Human PDE2 Ki (nM) - Lab B
measureName: Ki (nM)

[[record]]
smiles = "CCc1nc(C(=O)N[C@H](C)c2ccc(S(F)(F)(F)(F)F)cc2)cc(=O)[nH]1"
resultunits = "nM"
numericresult = 10

[[record]]
smiles = "CC[C@@H](NC(=O)c1cc(=O)[nH]c(Cc2ccc(OC)cc2)n1)c1ccc(S(F)(F)(F)(F)F)cc1"
resultunits = "nM"
numericresult = 3.4

[[record]]
smiles = "Cc1nc(C(=O)NC(C)(C)c2ccc(SC(F)(F)F)c(F)c2)cc(=O)[nH]1"
resultunits = "nM"
numericresult = 179

[[record]]
smiles = "COCc1nc(C(=O)N[C@H](C)c2ccc(OC(F)(F)F)c(F)c2)cc(=O)[nH]1"
resultunits = "nM"
numericresult = 64

[[record]]
smiles = "Cc1nc(C(=O)N[C@@H](c2ccc(C(C)C)cc2)C2(C)CC2)cc(=O)[nH]1"
resultunits = "nM"
numericresult = 3.7


A = COc1ccc(Cc2nc(C(=O)N[C@@H](c3ccc(SC(F)(F)F)cc3)C3CC3)cc(=O)[nH]2)cc1
B = Cc1nc(C(=O)N[C@@H](c2ccc(C(F)(F)F)c(F)c2)C(C)(C)C)cc(=O)[nH]1
**Q:** Between the entries labelled A and B , which has a larger Ki value on record? State your choice using its label.
**A:** B

---

targetOrTestSystem: human PDE2A1 (Homo sapiens (Human), UniProt O00408)
Sequence (O00408 other isoform, or with tags, fused parts or gaps): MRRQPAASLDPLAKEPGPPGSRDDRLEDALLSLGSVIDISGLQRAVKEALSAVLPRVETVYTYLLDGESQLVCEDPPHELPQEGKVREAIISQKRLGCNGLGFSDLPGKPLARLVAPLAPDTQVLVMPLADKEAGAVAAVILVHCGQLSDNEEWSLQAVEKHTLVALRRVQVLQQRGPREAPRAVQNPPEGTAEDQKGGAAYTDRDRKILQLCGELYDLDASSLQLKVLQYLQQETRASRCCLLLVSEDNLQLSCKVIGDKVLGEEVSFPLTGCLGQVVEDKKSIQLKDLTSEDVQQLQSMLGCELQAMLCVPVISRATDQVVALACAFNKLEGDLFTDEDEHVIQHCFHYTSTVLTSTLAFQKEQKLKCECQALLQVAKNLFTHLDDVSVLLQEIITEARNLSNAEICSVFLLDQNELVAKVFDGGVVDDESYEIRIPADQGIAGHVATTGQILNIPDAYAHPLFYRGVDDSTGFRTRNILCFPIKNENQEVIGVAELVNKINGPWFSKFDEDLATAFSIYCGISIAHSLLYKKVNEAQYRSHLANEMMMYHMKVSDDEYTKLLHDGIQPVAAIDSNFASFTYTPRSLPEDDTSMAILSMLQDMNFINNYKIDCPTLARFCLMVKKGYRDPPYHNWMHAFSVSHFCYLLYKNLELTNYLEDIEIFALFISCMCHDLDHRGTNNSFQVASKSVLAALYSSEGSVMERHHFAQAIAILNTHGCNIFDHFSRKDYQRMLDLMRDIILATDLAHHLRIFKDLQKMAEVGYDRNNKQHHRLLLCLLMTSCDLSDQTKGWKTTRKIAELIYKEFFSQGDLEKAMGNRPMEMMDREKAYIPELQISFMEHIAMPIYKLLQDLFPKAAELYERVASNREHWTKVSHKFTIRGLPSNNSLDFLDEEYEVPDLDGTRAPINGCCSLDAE
experimentSummary: IMAP FP PDE selectivity panel, human PDE2A1
Assay type: biochemical
particulars: Human PDE2, Lab B; read-out: Human PDE2 Ki (nM) - Lab B
Procedure: Selectivity for PDE2, as compared to other PDE families, was assessed using the IMAP® technology. Human PDE 10A2 enzyme was prepared from cytosolic fractions of transiently transfected HEK cells. […] Assays for PDE 1 through 11 were performed in parallel at room temperature in 384-well microtiter plates with an incubation volume of 20.2 μL. […] The intrinsic PDE2 inhibitory activity of a compound which may be used in accordance with the present invention may be determined by these assays.
measureName: Ki (nM)

Recorded Ki, per entry:
[[record]]
molecule = "Cc1nc(C(=O)N[C@@H](c2ccc3c(c2)OC(F)(F)O3)C2(C)CC2)cc(=O)[nH]1"
targetortestsystem = "human PDE2A1 (Homo sapiens (Human), UniProt O00408)"
numericresult = 29

[[record]]
molecule = "O=C(NC(c1ccc(C(F)(F)F)cc1)C(F)(F)F)c1cc(=O)[nH]c(-c2ccccc2)n1 (stereo not shown)"
targetortestsystem = "human PDE2A1 (Homo sapiens (Human), UniProt O00408)"
numericresult = 49

[[record]]
molecule = "Cc1nc(C(=O)N[C@@H](c2ccc(C(F)F)cc2F)C(C)(C)C)cc(=O)[nH]1"
targetortestsystem = "human PDE2A1 (Homo sapiens (Human), UniProt O00408)"
numericresult = 6.6


A = CC(C)(C)[C@@H](NC(=O)c1cc(=O)[nH]c(C2CC2)n1)c1ccc(C(F)(F)F)cc1F
B = C[C@@H](NC(=O)c1cc(=O)[nH]c(C2CC2)n1)c1ccc(SC(F)(F)F)c(F)c1
**Q:** Between the entries labelled A and B , which has a larger Ki value on record? State your choice using its label.
**A:** B
(B: 5.8 nM, A: 1.7 nM)
